Data credit: patent US20230272055A1

Let's look at some binders and their measured kon.
- ASSAYED_TARGET: T1, Recombinant MBP-mutCALR Type 1 fusion protein (human)
- T1 construct: custom made at Cepter; also called recombinant mutCALR protein
- PROTOCOL: SPR, IgG captured, 1:1 fit, Exp. 2
Report the figure along with its unit, number first.

BINDER	MEASUREMENT_TYPE	VALUE_REPORTED
anti-mutCALR antibody clone 178 (antibody, human IgG1, lambda, N297A, V domains shown, human IgG1 N297A variant of clone 17) VH: EVQLVQSGAEVKKPGASVKVSCKVSGYTLTELSMQWVRQAPGKGLEWMGGFDPDEGETMYAEKFQGRLTVTEDTSTDTVYMELSSLRSEDTAVYFCATSPGYDFFDYWGQGTLVTVSS VL: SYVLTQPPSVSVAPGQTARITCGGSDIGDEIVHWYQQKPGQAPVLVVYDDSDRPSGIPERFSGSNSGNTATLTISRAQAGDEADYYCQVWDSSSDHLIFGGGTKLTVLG	kon	1.02e+06 M⁻¹ s⁻¹

# kon lookup, item anti-mutCALR antibody clone 188 (antibody, human IgG1, lambda, N297A, V domains shown, human IgG1 N297A variant of clone 17) VH: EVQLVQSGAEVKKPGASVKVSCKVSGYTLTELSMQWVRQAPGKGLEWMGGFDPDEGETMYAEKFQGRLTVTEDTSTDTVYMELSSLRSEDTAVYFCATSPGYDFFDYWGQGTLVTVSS VL: SYVLTQPPSVSVAPGQTARITCGGSDIGDEIVHWYQQKPGQAPVLVVYDDSDRPSGIPERFSGSNSGNTATLTISRVEAGDEADYYCQVWDSSSDHLIFGGGTKLTVLG
732000 M⁻¹ s⁻¹

# kon lookup, item anti-mutCALR antibody clone 64 (antibody, human IgG1, lambda, N297A, V domains shown, human IgG1 N297A variant of clone 6) VH: EVQLVQSGAEVKKPGASVKVSCKVSGYTLTELSMQWVRQAPGKGLEWMGGFDPDDAETMYAEKFQGRLTVTEDTSTDTVYMELSSLRSEDTAVYFCATSPGYDFFDYWGQGTLVTVSS VL: QSALTQPASVSGSPGQSITISCTGTSSDVGGYNYVSWYQQHPGKAPKLMIYEVSNRPSGVSNRFSGSNSGNTATLTINRVEAGDEADYYCQVWDSSNDLLIFGGGTKLTVLG
3.89e+06 M⁻¹ s⁻¹

# kon lookup, item anti-mutCALR antibody clone 59 (antibody, human IgG1, lambda, N297A, V domains shown, human IgG1 N297A variant of clone 6) VH: EVQLVQSGAEVKKPGASVKVSCKVSGYTLTELSMQWVRQAPGKGLEWMGGFDPDDAETMYAEKFQGRLTVTEDTSTDTVYMELRSLTSEDTALYFCATSPGYDFFDYWGQGTLVTVSS VL: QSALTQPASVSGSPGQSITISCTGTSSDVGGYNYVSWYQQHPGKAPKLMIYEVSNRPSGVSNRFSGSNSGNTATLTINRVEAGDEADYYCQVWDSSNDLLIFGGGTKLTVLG
945000 M⁻¹ s⁻¹

# kon lookup, item anti-mutCALR antibody clone 84 (antibody, human IgG1, lambda, N297A, V domains shown, human IgG1 N297A variant of clone 6) VH: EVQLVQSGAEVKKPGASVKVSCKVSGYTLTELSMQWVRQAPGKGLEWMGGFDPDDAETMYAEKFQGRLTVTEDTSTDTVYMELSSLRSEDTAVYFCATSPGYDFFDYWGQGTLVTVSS VL: SYVLTQPPSVSVAPGKTARITCGGNNIGSKSVHWYQQKPGQAPVLVVYDDSDRPSGIPERFSGSNSGNTATLTISRVEAGDEADYYCQVWDSSNDLLIFGGGTKLTVLG
892000 M⁻¹ s⁻¹

# kon lookup, item anti-mutCALR antibody clone 177 (antibody, human IgG1, lambda, N297A, V domains shown, human IgG1 N297A variant of clone 17) VH: EVQLVQSGAEVKKPGASVKVSCKVSGYTLTELSMQWVRQAPGKGLEWMGGFDPDSGETMYAEKFQGRLTVTEDTSTDTVYMELSSLRSEDTAVYFCATSPGYDFFDYWGQGTLVTVSS VL: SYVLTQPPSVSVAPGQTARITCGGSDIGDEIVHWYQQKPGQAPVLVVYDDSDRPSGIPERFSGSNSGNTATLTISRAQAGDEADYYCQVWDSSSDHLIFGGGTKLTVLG
3.7e+06 M⁻¹ s⁻¹

# kon lookup, item anti-mutCALR antibody clone 136 (antibody, human IgG1, lambda, N297A, V domains shown, human IgG1 N297A variant of clone 15) VH: EVQLVQSGAEVKKPGASVKVSCKVSGYTLTELSMQWVRQAPGKGLEWMGGFDPDSGETMYAEKFQGRLTVTEDTSTDTVYMELRSLTSEDTALYFCATSPGYDFFDYWGQGTLVTVSS VL: SYVLTQPPSVSVAPGKTARITCGGDNIGSKSVHWYQQKPGQAPVLVVYDDSDRPSGIPERFSGSNSGNTATLTISRVEAGDEADYYCQVWDSSNDLLIFGGGTKLTVLG
756000 M⁻¹ s⁻¹

# kon lookup, item anti-mutCALR antibody clone 77 (antibody, human IgG1, lambda, N297A, V domains shown, human IgG1 N297A variant of clone 6) VH: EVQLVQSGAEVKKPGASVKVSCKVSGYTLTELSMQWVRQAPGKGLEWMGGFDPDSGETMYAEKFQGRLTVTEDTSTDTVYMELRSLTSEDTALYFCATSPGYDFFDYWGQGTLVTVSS VL: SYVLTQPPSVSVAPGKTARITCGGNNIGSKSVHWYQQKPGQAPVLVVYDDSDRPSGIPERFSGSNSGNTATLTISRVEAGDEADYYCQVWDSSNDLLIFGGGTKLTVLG
3.13e+06 M⁻¹ s⁻¹

# kon lookup, item anti-mutCALR antibody clone 74 (antibody, human IgG1, lambda, N297A, V domains shown, human IgG1 N297A variant of clone 6) VH: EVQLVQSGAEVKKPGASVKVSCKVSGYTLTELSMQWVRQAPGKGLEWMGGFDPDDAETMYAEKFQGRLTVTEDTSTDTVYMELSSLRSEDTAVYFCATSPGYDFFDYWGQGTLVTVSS VL: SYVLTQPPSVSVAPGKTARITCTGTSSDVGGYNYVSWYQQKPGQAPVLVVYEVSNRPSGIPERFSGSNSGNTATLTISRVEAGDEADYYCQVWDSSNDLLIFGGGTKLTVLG
1.29e+06 M⁻¹ s⁻¹

# kon lookup, item anti-mutCALR antibody clone 126 (antibody, human IgG1, lambda, N297A, V domains shown, human IgG1 N297A variant of clone 15) VH: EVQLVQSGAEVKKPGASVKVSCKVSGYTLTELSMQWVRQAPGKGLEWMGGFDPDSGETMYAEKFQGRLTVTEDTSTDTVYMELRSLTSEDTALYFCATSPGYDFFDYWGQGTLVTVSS VL: SYELTQPPSVSVAPGKTARITCGGDNIGSKSVHWYQQKPGQAPVLVVYDDSDRPSGIPERFSGSNSGNTATLTINRVEAGDEADYYCQVWDSSNDLLIFGGGTKLTVLG
1.29e+06 M⁻¹ s⁻¹
